Biological target: T1, mouse PTH1R overexpressed on CHO cells (mouse, UniProt P41593 27-591)
T1 construct: whole, on cells; also called CHO mouse PTH1R; CHO Mouse PTHR
T1 sequence (looked up): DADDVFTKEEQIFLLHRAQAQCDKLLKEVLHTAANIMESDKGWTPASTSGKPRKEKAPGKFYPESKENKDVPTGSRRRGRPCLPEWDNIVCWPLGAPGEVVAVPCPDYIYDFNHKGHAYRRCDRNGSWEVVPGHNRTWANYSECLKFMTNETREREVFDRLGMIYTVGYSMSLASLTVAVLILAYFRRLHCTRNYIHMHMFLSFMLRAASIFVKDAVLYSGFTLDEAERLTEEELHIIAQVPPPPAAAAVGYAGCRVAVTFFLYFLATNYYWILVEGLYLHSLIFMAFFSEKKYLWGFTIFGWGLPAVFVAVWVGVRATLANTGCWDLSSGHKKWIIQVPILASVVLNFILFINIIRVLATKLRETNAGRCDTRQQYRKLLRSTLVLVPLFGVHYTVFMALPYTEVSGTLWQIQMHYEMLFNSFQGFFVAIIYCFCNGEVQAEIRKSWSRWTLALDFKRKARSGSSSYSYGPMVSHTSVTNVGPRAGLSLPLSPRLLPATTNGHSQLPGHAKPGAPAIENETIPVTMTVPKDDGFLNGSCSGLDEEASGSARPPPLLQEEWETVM
Test: flow cytometry on CHO cells, 24 hr at 4 C
quantity_kind: EC50 (pM)
Numbers only, in pM.

// known answers, use as guide
# binder, unit_abbrev, measured
rows = [
    ("XPA.85.337 (antibody, V domains shown, Light-chain-shuffled variant of XPA.85.017) VH: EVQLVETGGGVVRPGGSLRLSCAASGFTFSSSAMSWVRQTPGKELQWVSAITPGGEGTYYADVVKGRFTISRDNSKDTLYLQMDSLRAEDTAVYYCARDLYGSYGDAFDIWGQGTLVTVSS VL: SYVLTQPPSVSVAPGQTATITCSGDDFGDKYVSWYQQKPGQSPLLVIFQDNERPSGIPERFSGSNSGNTATLTISGTQAMDEADYYCQAWDSNWVFGGGTKVTVL", "pM", 3270),
    ("XPA.85.287 (antibody, V domains shown, also called Ab287) VH: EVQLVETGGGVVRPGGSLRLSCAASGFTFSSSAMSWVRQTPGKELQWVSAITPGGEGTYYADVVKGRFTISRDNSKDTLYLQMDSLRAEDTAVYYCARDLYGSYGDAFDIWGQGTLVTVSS VL: SYVLTQPPSVSVAPGQTARITCSGDKLGDRYVSWYQQKPGQSPVLVMFEDTGRPAGIPERFSGSNSGNTATLTISGTQAEDEADYYCQAWGTSWVFGGGTQLTVL", "pM", 216),
]

Let us move to another entry and its EC50.
Briefly, EC50 measured for XPA.85.340 (antibody, V domains shown, Light-chain-shuffled variant of XPA.85.017) VH: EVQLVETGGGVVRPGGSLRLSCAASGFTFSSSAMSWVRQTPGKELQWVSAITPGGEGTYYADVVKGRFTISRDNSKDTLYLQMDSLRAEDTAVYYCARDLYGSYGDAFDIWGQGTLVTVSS VL: SYVLTQPPSVSVAPGQTASITCSGDNLGEKFVSWYQQKAGQSPVLVIFEDNKRPSGIPERFAGSNSGNRATLTIRGTQAEDEADYYCQAWDSSWVFGGGTQLTVL : 322
